Tested on: Fibroblast
Assay: Multiplex assay against human fibroblast
Format: toxicity, cell-based
Details: 24 h, 10 µM, compound concentration 10 uM, replicate 2
Please go through the items and note down their Population Mitotic Cells (%).
Quick note: unit goes after the number.

Input COc1cc2nc(N3CCN(C(=O)COc4c(OC)cccc4C(C)C)CC3)nc(N)c2cc1OC.Cl.Cl . Output Population Mitotic Cells (%): 66%

Input COc1cc(C(=O)N2CC[C@@H](O)[C@@H](N)C2)cc2nc(-c3cc4ccccc4n3CC3CC3)n(C)c12.Cl . Output Population Mitotic Cells (%): 37%

Input CCCCCCNC(=O)Nc1ccc(S(=O)(=O)Nc2ccc(CCNC[C@H](O)COc3ccc(O)cc3)cc2)cc1 . Output Population Mitotic Cells (%): 50%

Input O=C(O)CCC/C=C\CC1C(O)CC(O)C1/C=C/C(O)COc1cccc(Cl)c1 (centres undefined) . Output Population Mitotic Cells (%): 40%

Input C[C@H](NC(=O)CNC(=O)c1cccc(Cl)c1)c1ccccc1 . Output Population Mitotic Cells (%): 43%

Input CC(C)(C)c1ccc(CSc2cnn(C(C)(C)C)c(=O)c2Cl)cc1 . Output Population Mitotic Cells (%): 45%

Input Cc1cc(O)c(-c2ccc([C@@H](C)CN(C)C)cc2)c2c1[nH]c(=O)c1sccc12 . Output Population Mitotic Cells (%): 42%

Input Cc1sc2c(c1C)C(c1ccc(Cl)cc1)=N[C@H](CC(=O)OC(C)(C)C)c1nnc(C)n1-2 . Output Population Mitotic Cells (%): 48%

Input CC(C)C[C@H](CO)Nc1nc(S[C@@H](C)c2ccccc2)nc2nc(N)sc12 . Output Population Mitotic Cells (%): 66%

* * *

Please go through the items and note down their Population Pyknosed Nuclei (%).
System: U2OS
Assay: Multiplex assay against U2OS
Format: toxicity, cell-based
Settings: human, 48 h, 1 µM, compound concentration 1 uM, replicate 1
Give the quantity in %, number only.

Input Cc1cc(=O)n(C)c2cc(N3C(=O)CC[C@H](NS(=O)(=O)CC(C)C)[C@H]3c3ccc(Cl)cc3)ccc12 . Output Population Pyknosed Nuclei (%): 11

Input CC(C)(C)c1ccc(CSc2cnn(C(C)(C)C)c(=O)c2Cl)cc1 . Output Population Pyknosed Nuclei (%): 9

Input COCCCN1CCC(NC(=O)c2cc(Cl)c(N)c3c2OCC3)CC1 [PRUCALOPRIDE] . Output Population Pyknosed Nuclei (%): 6

Input CC(C)C[C@H](CO)Nc1nc(S[C@@H](C)c2ccccc2)nc2nc(N)sc12 . Output Population Pyknosed Nuclei (%): 11

Input Cc1cc(NC(=O)NCCN2CCC(O)(Cc3ccccc3)CC2)c2ccccc2n1 . Output Population Pyknosed Nuclei (%): 6

Input Nc1nc(-c2ccco2)c2cnn(Cc3ccccc3F)c2n1 . Output Population Pyknosed Nuclei (%): 7

Input O=C(Nc1cc(-c2ccccc2)nn1-c1ccccc1F)c1ccc([N+](=O)[O-])cc1 . Output Population Pyknosed Nuclei (%): 8

Input CN(C)C/C=C/C(=O)Nc1ccc(C(=O)N2CCCC(Nc3ncc(Cl)c(-c4c[nH]c5ccccc45)n3)C2)cc1 (stereo not drawn) . Output Population Pyknosed Nuclei (%): 10

Input O=C(O)CCC/C=C\CC1C(O)CC(O)C1/C=C/C(O)COc1cccc(Cl)c1 (stereo not drawn) . Output Population Pyknosed Nuclei (%): 8

Input CN(C)C(=O)Cn1cc(-c2ccc(-c3nnc4ccccn34)cc2)cn1 . Output Population Pyknosed Nuclei (%): 7

Input Cc1ccc(OCC(O)C(C)NC(C)C)c2c1CCC2.Cl (stereo not drawn) . Output Population Pyknosed Nuclei (%): 12

Input CCc1nn2c(C)cc(C)nc2c1Cc1ccc(-c2nnc(C3CCNCC3)o2)cc1 . Output Population Pyknosed Nuclei (%): 10

Input C=CCN1C[C@H](C(=O)N(CCCN(C)C)C(=O)NCC)C[C@@H]2c3cccc4[nH]cc(c34)C[C@H]21 . Output Population Pyknosed Nuclei (%): 8

Input CCCCCCNC(=O)Nc1ccc(S(=O)(=O)Nc2ccc(CCNC[C@H](O)COc3ccc(O)cc3)cc2)cc1 . Output Population Pyknosed Nuclei (%): 11

Input N[C@](CC1c2ccccc2Oc2ccccc21)(C(=O)O)[C@H]1C[C@@H]1C(=O)O . Output Population Pyknosed Nuclei (%): 9

Input CN1CCN2c3ccccc3Cc3ccccc3C2C1.Cl (stereo not drawn) [MIANSERIN HYDROCHLORIDE] . Output Population Pyknosed Nuclei (%): 5

Input COc1cc(C(=O)N2CC[C@@H](O)[C@@H](N)C2)cc2nc(-c3cc4ccccc4n3CC3CC3)n(C)c12.Cl . Output Population Pyknosed Nuclei (%): 15

Input CN1CCC(C(=O)c2cccc(NC(=O)c3c(F)cc(F)cc3F)n2)CC1 . Output Population Pyknosed Nuclei (%): 11
